Test: Molar enthalpy of transition or fusion
Conditions: Crystal; DSC
Measurement Kind: Molar enthalpy of transition or fusion (kcal/mol)

1. CC(C)(C)NCC(O)COc1cccc2c1CC(O)C(O)C2 (stereo unspecified)
2. CC(C)NCC(O)COc1ccc(CC(N)=O)cc1 (stereo unspecified) [2-(4-(2-hydroxy-3-(isopropylamino)propoxy)phenyl)acetamide]
(Q) Of 1 and 2 , which shows the smaller Molar enthalpy of transition or fusion value? Identify your selection by its label.
(A) 2

a. c1ccc(-c2ccc(C(c3ccccc3)n3ccnc3)cc2)cc1 (stereo unspecified) [1-([1,1'-biphenyl]-4-yl(phenyl)methyl)-1H-imidazole]
b. Cc1cccc(Nc2ccccc2C(=O)O)c1C
(Q) Of a and b , which shows the smaller Molar enthalpy of transition or fusion value? Identify your selection by its label.
(A) a
(a: 8.96 kcal/mol, b: 17 kcal/mol)
